run description: in vitro
Assay type: in vitro ADME, human
study conditions: human, microsomes
Binarize half-life at 10 min; below is t, at or above is f.

Would you please look over these solved cases?
CC(=O)[C@H]1CC[C@H]2[C@@H]3CC[C@H]4C[C@](C)(OC(=O)CNC(C)(C)COC(=O)C(C)C)CC[C@]4(C)[C@H]3CC[C@]12C t
CC(=O)[C@H]1CC[C@H]2[C@@H]3CC[C@H]4C[C@](C)(OC(=O)COC(=O)C(C)(C)OC(=O)CN(C)CCOC(=O)CN)CC[C@]4(C)[C@H]3CC[C@]12C t
CC(=O)[C@H]1CC[C@H]2[C@@H]3CC[C@H]4C[C@](C)(OC(=O)CCC(=O)OCCN(C)C)CC[C@]4(C)[C@H]3CC[C@]12C f

Req: Just wondering, is half-life of "CC(=O)[C@H]1CC[C@H]2[C@@H]3CC[C@H]4C[C@](C)(OC(=O)CN(CCO)CCO)CC[C@]4(C)[C@H]3CC[C@]12C" below 10 min?
Resp: f

Req: Same for "CC(=O)[C@H]1CC[C@H]2[C@@H]3CC[C@H]4C[C@](C)(OC(=O)COC(=O)[C@@H](C)N5CCOCC5)CC[C@]4(C)[C@H]3CC[C@]12C"
Resp: f
